experiment: Protein binding in human plasma at 10 uM after 5 hrs by equilibrium dialysis based LC-MS/MS analysis; assay type: ADME, cell-free; details: read-out: PPB (converted)
READOUT_LABEL: fraction unbound at 5 h, 10 µM

SMILES_TEXT: Cn1c(Nc2c(F)cccc2Cl)nc2cc(C(=O)Nc3cccc(C(F)(F)F)c3)c3c(c21)CC(C)(C)O3
TEST_VALUE: 0.0029
//
SMILES_TEXT: Cn1c(Nc2c(F)cccc2Cl)nc2cc(C(=O)Nc3ccc(C(F)(F)F)cn3)c3c(c21)CC(C)(C)O3
TEST_VALUE: 0.0015

I = CC1(C)Cc2c(c(C(=O)Nc3ccc(F)c(C(F)(F)F)c3)cc3nc(Nc4c(F)cccc4Cl)[nH]c23)O1
II = CC1(C)Cc2c(c(C(=O)Nc3ccc(C(F)(F)F)cn3)cc3nc(Nc4c(Cl)cccc4Cl)[nH]c23)O1
Out of I and II , name the one with the higher fraction unbound at 5 h, 10 µM. # reply format: chosen label
I
(I: 0.0054, II: 0.0004)

###

target: Hematopoietic prostaglandin D synthase (Homo sapiens) (UniProt O60760); assay: Inhibition of PGDS (unknown origin) at 10 uM relative to control
Sequence (O60760 whole entry): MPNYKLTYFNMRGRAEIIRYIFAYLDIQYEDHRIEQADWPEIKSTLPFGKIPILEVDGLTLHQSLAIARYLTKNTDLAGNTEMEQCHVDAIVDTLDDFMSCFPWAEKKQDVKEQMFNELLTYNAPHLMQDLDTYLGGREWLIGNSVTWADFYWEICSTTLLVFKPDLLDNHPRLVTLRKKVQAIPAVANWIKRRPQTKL
READOUT_LABEL: inhibition (%)

SMILES_TEXT: Cc1cccc(Cl)c1Nc1nc2cc(C(=O)Nc3cc(C(F)(F)F)ccc3F)c3c(c2[nH]1)CC(C)(C)O3
inhibition, %: 19.5
//
SMILES_TEXT: Cn1c(Nc2c(F)cccc2Cl)nc2cc(C(=O)Nc3cccc(C(F)(F)F)c3)c3c(c21)CC(C)(C)O3
inhibition, %: 16.5

a = CC1(C)Cc2c(c(C(=O)Nc3cc(C(F)(F)F)ccc3F)cc3nc(Nc4c(F)cccc4Cl)[nH]c23)O1
b = CC1(C)Cc2c(c(C(=O)Nc3ccc(C(F)(F)F)cn3)cc3nc(Nc4c(Cl)cccc4Cl)[nH]c23)O1
c = CC1(C)Cc2c(c(C(=O)Nc3ccc(F)c(C(F)(F)F)c3)cc3nc(Nc4c(F)cccc4Cl)[nH]c23)O1
d = Cc1cccc(Cl)c1Nc1nc2cc(C(=O)Nc3cc(C(F)F)ccc3F)c3c(c2[nH]1)CC(C)(C)O3
Hi! Can you put these in order of inhibition, lowest number first? Would you mind listing the labels in the order asked for?
c, a, b, d
(c: 0%, a: 5.8%, b: 15.1%, d: 27.6%)

###

Target: Prostaglandin E synthase (Canis lupus familiaris, UniProt A0SYQ0)
Sequence (A0SYQ0 whole entry): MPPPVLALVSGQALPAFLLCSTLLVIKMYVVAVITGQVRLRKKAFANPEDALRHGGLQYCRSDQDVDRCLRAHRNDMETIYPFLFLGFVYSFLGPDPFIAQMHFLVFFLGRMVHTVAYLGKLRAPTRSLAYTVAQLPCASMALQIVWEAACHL
Test: Inhibition of mPGES1 in dog whole blood assessed as reduction in LPS-induced PGE2 production measured after 20 to 24 hrs
READOUT_LABEL: IC50 (µM)

SMILES_TEXT: CC1(C)Cc2c(c(C(=O)Nc3ccc(C(F)(F)F)cn3)cc3nc(Nc4c(Cl)cccc4Cl)[nH]c23)O1
TEST_VALUE: 3.54

I = Cc1cccc(Cl)c1Nc1nc2cc(C(=O)Nc3cc(C(F)(F)F)ccc3F)c3c(c2[nH]1)CC(C)(C)O3
II = CC1(C)Cc2c(c(C(=O)Nc3ccc(F)c(C(F)(F)F)c3)cc3nc(Nc4c(F)cccc4Cl)[nH]c23)O1
Out of I and II , name the one with the higher IC50. # reply format: chosen label
II

###

test: Tmax in Beagle dog at 10 mg/kg, po; format: ADME, organism-based, Canis lupus familiaris; conditions: in vivo
READOUT_LABEL: Tmax (h)

SMILES_TEXT: CC1(C)Cc2c(c(C(=O)Nc3ccc(C(F)(F)F)cn3)cc3nc(Nc4c(Cl)cccc4Cl)[nH]c23)O1
VALUE_UNITS: h
Tmax: 12

1 = Cc1cccc(Cl)c1Nc1nc2cc(C(=O)Nc3cc(C(F)(F)F)ccc3F)c3c(c2[nH]1)CC(C)(C)O3
2 = CC1(C)Cc2c(c(C(=O)Nc3ccc(F)c(C(F)(F)F)c3)cc3nc(Nc4c(F)cccc4Cl)[nH]c23)O1
For 1 and 2 , which recorded Tmax is lower? # reply format: chosen label
1

###

Biological target: Prostaglandin E synthase (Homo sapiens, UniProt O14684)
Sequence (O14684 whole entry): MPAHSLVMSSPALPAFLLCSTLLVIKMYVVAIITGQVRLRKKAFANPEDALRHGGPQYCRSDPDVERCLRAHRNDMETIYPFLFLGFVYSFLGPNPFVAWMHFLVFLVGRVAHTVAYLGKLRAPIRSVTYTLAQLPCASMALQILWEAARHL
Assay: Inhibition of recombinant human mPGES1 expressed in CHO cells assessed as reduction in PGE2 production using PGH2 as substrate incubated for 10 mins followed by substrate addition measured for 1 min
Assay type: cell-based
READOUT_LABEL: IC50 (nM)

Some solved entries appear below for comparison.
SMILES_TEXT: Cc1cccc(Cl)c1Nc1nc2cc(C(=O)Nc3ccc(C(F)(F)F)cc3)c3c(c2[nH]1)CC(C)(C)O3
READOUT_LABEL: IC50
TEST_VALUE: 14
//
SMILES_TEXT: Cc1cccc(Cl)c1Nc1nc2cc(C(=O)Nc3cc(C(F)F)ccc3F)c3c(c2[nH]1)CC(C)(C)O3
READOUT_LABEL: IC50
TEST_VALUE: 10

I = Cn1c(Nc2c(F)cccc2Cl)nc2cc(C(=O)Nc3ccc(C(F)(F)F)cn3)c3c(c21)CC(C)(C)O3
II = CC1(C)Cc2c(c(C(=O)Nc3c(F)cccc3F)cc3nc(Nc4c(Cl)cccc4Cl)[nH]c23)O1
For I and II , which recorded IC50 is lower? # reply format: chosen label
II

###

biological target: UniProt P33261; experiment: Inhibition of CYP2C19 in human liver microsomes at 10 uM after 40 mins in presence of NADPH by LC-MS/MS analysis; format: ADME
Sequence (P33261 whole entry): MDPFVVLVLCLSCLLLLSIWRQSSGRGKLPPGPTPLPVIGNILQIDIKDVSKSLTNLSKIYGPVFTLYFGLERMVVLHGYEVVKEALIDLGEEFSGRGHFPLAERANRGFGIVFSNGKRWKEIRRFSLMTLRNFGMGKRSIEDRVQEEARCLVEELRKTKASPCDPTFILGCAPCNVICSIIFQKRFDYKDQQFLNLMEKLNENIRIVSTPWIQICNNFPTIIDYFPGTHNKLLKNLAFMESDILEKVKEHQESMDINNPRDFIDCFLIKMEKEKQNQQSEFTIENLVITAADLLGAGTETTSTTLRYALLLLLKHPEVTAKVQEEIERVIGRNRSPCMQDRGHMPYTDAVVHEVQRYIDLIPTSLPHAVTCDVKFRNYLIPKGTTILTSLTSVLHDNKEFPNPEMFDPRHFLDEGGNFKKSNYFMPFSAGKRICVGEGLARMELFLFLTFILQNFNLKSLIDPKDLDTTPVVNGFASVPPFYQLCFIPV
READOUT_LABEL: inhibition at 40 min, 10 µM (%)

Some solved entries appear below for comparison.
SMILES_TEXT: Cn1c(Nc2c(F)cccc2Cl)nc2cc(C(=O)Nc3ccc(C4CC4)cc3)c3c(c21)CC(C)(C)O3
TARGET_DESC: UniProt P33261
VALUE_UNITS: %
inhibition at 40 min, 10 µM: 24
//
SMILES_TEXT: Cc1cccc(Cl)c1Nc1nc2cc(C(=O)Nc3cc(C(F)F)ccc3F)c3c(c2[nH]1)CC(C)(C)O3
TARGET_DESC: UniProt P33261
VALUE_UNITS: %
inhibition at 40 min, 10 µM: 14

I = CC1(C)Cc2c(c(C(=O)Nc3ccccc3C(F)(F)F)cc3nc(Nc4c(F)cccc4Cl)[nH]c23)O1
II = Cc1cccc(Cl)c1Nc1nc2cc(C(=O)Nc3ccc(F)c(C(F)(F)F)c3)c3c(c2[nH]1)CC(C)(C)O3
Out of I and II , name the one with the higher inhibition at 40 min, 10 µM. # reply format: chosen label
I

###

target: UniProt P05177; test: Inhibition of CYP1A2 in human liver microsomes at 10 uM after 20 mins in presence of NADPH by LC-MS/MS analysis; assay type: ADME
Sequence (P05177 whole entry): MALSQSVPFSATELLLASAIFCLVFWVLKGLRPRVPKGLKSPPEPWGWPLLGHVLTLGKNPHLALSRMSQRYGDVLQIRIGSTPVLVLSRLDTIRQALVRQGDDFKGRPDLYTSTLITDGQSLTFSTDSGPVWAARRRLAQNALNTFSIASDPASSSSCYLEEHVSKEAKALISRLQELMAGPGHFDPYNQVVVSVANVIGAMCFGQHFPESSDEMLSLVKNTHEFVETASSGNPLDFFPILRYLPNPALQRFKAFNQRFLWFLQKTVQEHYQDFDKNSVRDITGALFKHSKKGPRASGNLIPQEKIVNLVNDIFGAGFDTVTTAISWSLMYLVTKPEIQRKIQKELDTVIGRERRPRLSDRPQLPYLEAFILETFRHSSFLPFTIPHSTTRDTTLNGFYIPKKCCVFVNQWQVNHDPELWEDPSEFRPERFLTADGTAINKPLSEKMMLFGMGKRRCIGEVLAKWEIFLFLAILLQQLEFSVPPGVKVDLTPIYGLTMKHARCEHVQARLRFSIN
READOUT_LABEL: inhibition at 20 min, 10 µM (%)

Some solved entries appear below for comparison.
SMILES_TEXT: CC1(C)Cc2c(c(C(=O)Nc3cc(C(F)(F)F)ccc3F)cc3nc(Nc4c(F)cccc4Cl)[nH]c23)O1
TARGET_DESC: UniProt P05177
TEST_VALUE: 22
--
SMILES_TEXT: Cc1ccc(NC(=O)c2cc3nc(Nc4c(F)cccc4Cl)n(C)c3c3c2OC(C)(C)C3)c(F)c1
TARGET_DESC: UniProt P05177
TEST_VALUE: 26

A = Cc1cccc(Cl)c1Nc1nc2cc(C(=O)Nc3cc(C(F)F)ccc3F)c3c(c2[nH]1)CC(C)(C)O3
B = Cn1c(Nc2c(F)cccc2Cl)nc2cc(C(=O)Nc3cccc(C(F)(F)F)c3)c3c(c21)CC(C)(C)O3
For A and B , which recorded inhibition at 20 min, 10 µM is lower? # reply format: chosen label
B

###

experiment: Protein binding in human plasma at 10 uM after 5 hrs by equilibrium dialysis based LC-MS/MS analysis; assay type: ADME, cell-free; details: read-out: PPB (converted)
The reader will find reported fraction unbound at 5 h, 10 µM values listed item by item below.

Some solved entries appear below for comparison.
SMILES_TEXT: CC1(C)Cc2c(c(C(=O)Nc3cc(C(F)F)ccc3F)cc3nc(Nc4c(F)cccc4Cl)[nH]c23)O1
TEST_VALUE: 0.0018
--
SMILES_TEXT: Cc1ccc(NC(=O)c2cc3nc(Nc4c(F)cccc4Cl)n(C)c3c3c2OC(C)(C)C3)c(F)c1
TEST_VALUE: < 0.005
--
SMILES_TEXT: Cc1cccc(Cl)c1Nc1nc2cc(C(=O)Nc3ccc(C(F)(F)F)cc3)c3c(c2[nH]1)CC(C)(C)O3
TEST_VALUE: < 0.005

Now for a further compound.
Value of fraction unbound at 5 h, 10 µM reported for the compound CC1(C)Cc2c(c(C(=O)Nc3ccc(C(F)(F)F)cc3F)cc3nc(Nc4c(F)cccc4Cl)[nH]c23)O1 is < 0.005
